target-or-system: NaV1.5 (Homo sapiens (Human), UniProt Q14524)
Sequence (Q14524 whole entry): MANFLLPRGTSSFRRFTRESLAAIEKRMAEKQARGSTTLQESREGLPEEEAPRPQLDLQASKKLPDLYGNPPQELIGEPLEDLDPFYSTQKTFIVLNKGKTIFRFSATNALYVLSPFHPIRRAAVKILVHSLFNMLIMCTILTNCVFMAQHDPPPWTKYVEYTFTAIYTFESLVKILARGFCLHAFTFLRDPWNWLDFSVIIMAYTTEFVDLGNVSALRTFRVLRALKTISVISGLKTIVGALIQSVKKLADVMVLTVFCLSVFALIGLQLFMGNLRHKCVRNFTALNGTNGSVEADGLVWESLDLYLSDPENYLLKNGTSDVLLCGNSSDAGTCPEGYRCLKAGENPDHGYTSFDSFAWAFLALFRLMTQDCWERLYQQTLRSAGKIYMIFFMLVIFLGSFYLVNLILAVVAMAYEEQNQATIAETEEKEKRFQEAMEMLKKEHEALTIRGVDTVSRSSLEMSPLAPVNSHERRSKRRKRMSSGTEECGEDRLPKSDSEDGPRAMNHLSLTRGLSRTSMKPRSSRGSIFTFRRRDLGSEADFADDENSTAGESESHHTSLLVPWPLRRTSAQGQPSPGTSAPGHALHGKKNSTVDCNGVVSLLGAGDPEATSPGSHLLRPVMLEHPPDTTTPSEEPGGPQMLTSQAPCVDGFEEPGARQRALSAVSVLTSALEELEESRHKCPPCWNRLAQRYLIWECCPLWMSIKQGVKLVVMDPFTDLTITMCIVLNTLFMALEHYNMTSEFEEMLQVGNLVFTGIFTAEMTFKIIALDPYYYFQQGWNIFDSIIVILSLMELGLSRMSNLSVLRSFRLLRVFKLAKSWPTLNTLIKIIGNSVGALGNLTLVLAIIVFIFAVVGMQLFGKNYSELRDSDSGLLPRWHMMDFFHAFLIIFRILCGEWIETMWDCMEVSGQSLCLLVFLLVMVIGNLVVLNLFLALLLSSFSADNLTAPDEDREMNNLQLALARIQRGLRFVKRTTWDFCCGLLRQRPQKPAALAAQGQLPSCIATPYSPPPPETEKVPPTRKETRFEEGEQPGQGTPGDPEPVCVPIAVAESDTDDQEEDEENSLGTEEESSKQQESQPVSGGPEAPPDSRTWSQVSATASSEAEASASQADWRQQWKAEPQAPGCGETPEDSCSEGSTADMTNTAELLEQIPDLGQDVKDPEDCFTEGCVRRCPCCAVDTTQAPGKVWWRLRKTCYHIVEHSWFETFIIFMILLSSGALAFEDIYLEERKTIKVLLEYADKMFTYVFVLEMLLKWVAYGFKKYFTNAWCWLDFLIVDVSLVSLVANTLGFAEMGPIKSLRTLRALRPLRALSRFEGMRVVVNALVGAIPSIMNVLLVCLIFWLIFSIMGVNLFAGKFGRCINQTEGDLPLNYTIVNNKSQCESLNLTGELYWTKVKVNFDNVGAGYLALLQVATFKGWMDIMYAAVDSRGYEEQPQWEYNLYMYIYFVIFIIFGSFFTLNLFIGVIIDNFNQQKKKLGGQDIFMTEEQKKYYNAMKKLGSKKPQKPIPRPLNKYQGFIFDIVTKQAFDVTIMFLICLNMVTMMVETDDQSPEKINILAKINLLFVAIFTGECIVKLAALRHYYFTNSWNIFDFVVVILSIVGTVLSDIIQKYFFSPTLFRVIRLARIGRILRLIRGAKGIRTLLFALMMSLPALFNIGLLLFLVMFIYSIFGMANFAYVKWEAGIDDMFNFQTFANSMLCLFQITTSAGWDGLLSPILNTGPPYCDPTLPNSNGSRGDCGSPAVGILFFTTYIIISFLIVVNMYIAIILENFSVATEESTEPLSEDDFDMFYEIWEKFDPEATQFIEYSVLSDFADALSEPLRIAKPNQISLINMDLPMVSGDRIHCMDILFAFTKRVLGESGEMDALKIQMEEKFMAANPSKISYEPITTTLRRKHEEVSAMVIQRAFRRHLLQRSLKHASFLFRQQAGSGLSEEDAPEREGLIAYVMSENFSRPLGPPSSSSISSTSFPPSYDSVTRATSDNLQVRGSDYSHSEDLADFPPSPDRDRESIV
run-description: Automated electrophysiology, IonWorks Barracuda population patch clamp, NaV1.5 current (inactivated-state protocol)
Type: cell-based
conditions: HEK 293 cells expressing NaV1.5; read-out: NaV1.5 Barra IC50
measured-metric: IC50 (µM)
Give bare numbers, in µM.

Cn1cc(-c2ccc(C(F)(F)F)cc2)c2ccc(C(=O)NS(=O)(=O)c3ccc(F)c(F)c3)cc21 :: 18.1
CC(C)COc1ncc(-c2cn(C)c3cc(C(=O)NS(=O)(=O)C4CC4)c(F)cc23)cc1Cl :: 4.85
CC(C)COc1ncc(-c2cn(C)c3cc(C(=O)NS(=O)(=O)N4CCCCC4)ccc23)cc1Cl :: 8.77
Cn1cc(-c2ccc(C(F)(F)F)cc2)c2cc(F)c(C(=O)NS(=O)(=O)C3CC3)cc21 :: 3.82
CC(C)COc1ccc(-c2cn(C)c3cc(C(=O)NS(=O)(=O)C4CC4)c(F)cc23)cn1 :: 3.7

For every item below, please supply its IC50.
1. CC(C)COc1ncc(-c2cn(C(C)C)c3cc(C(=O)NS(C)(=O)=O)ccc23)cc1Cl
2. CC(C)COc1ncc(-c2cn(C)c3cc(C(=O)NS(=O)(=O)C(C)(C)C)ccc23)cc1Cl

Response given:
1.49
21.9

----------
target-or-system: NaV1.5 (Homo sapiens (Human), UniProt Q14524)
run-description: Automated electrophysiology, IonWorks Barracuda population patch clamp, NaV1.5 current (inactivated-state protocol)
Format: cell-based
conditions: HEK 293 cells expressing NaV1.5; read-out: NaV1.5 Barra IC50
pIC50: −log10 of the molar value.
Decision: pIC50 >= 5 yields YES, all other cases yield NO.

Challenge: Textbook exercise: given the entry `CC(C)COc1ncc(-c2c3ccc(C(=O)NS(C)(=O)=O)cc3nn2C)cc1Cl` , state whether its pIC50 is greater than or equal to 5.
Response given: NO

Challenge: Identify whether the reported pIC50 of the following compound is 5 or greater: `CCS(=O)(=O)NC(=O)c1ccc2c(-c3cnc(OCC(C)C)c(Cl)c3)cn(C)c2c1`
Response given: YES

Challenge: API: above_or_equal(metric=pIC50, cutoff=5) for item `CC(C)Cc1ccc(-c2cn(C)c3cc(C(=O)NS(C)(=O)=O)ccc23)cc1`
Response given: NO

Challenge: Could you verify whether the entry `CC(C)COc1ncc(-c2cn(CC(C)C)c3cc(C(=O)NS(C)(=O)=O)ccc23)cc1Cl` shows pIC50 of no less than 5?
Response given: NO

----------
target-or-system: UniProt:Q15858
Sequence (Q15858 whole entry): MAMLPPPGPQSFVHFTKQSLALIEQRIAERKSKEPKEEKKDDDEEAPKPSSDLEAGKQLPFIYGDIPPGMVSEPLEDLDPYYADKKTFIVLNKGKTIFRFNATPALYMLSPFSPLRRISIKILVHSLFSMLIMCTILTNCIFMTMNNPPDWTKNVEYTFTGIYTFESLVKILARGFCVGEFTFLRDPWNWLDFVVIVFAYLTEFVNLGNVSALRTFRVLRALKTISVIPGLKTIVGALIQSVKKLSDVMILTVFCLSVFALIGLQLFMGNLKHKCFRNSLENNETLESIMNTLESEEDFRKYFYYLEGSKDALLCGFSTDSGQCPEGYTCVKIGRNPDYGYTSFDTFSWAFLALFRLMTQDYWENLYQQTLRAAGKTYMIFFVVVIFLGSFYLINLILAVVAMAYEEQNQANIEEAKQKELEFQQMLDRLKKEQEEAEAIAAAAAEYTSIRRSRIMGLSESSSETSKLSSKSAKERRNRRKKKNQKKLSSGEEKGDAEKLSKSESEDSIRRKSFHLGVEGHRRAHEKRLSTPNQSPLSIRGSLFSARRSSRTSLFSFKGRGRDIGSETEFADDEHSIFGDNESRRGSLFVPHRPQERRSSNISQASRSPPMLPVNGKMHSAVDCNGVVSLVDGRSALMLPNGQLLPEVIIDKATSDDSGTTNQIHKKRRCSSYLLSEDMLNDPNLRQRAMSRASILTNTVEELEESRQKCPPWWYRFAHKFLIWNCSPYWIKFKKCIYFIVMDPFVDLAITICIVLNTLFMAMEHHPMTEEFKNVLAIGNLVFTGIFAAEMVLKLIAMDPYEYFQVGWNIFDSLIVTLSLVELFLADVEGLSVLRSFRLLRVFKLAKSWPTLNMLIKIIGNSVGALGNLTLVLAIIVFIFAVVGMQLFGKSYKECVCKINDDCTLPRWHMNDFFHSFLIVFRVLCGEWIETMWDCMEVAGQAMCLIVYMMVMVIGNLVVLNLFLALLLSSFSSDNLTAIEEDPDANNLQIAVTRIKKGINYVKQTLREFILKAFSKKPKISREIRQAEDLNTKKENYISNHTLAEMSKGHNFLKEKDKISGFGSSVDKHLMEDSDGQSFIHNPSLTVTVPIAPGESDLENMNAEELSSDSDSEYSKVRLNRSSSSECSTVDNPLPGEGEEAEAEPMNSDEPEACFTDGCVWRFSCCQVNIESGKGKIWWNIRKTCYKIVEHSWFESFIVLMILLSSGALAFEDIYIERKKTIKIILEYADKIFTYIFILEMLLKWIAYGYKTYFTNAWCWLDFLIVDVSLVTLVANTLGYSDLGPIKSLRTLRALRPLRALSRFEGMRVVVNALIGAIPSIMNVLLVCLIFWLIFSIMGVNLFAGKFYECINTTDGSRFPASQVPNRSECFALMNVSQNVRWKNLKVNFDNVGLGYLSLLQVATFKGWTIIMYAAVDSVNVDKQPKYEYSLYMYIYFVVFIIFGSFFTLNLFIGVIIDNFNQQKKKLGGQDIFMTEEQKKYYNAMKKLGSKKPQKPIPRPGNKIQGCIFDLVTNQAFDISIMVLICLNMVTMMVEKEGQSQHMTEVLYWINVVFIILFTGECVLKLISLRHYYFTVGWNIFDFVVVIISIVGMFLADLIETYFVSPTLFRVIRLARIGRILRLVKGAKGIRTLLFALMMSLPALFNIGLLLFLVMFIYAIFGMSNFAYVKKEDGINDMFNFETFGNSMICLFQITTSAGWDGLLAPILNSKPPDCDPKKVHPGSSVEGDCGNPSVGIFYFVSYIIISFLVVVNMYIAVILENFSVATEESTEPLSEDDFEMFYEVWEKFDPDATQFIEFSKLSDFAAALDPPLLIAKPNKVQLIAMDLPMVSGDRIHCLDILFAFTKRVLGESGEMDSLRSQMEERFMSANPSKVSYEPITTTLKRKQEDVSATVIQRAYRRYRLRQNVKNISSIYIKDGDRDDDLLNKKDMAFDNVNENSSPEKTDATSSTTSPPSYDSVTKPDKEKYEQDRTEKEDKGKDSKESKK
run-description: Automated electrophysiology, IonWorks Barracuda population patch clamp, NaV1.7 current (inactivated-state protocol)
conditions: HEK 293 cells expressing NaV1.7; 600 sec compound incubation; read-out: NaV1.7 Barra IC50
measured-metric: pIC50
One number for each entry, as −log10 of the molar value.

Before answering, review these 7 worked examples.
Cn1cc(-c2ccc(C(F)F)cc2)c2ccc(C(=O)NS(C)(=O)=O)cc21 [Example 30] :: 6.58
Cn1cc(-c2cccc(F)c2F)c2ccc(C(=O)NS(C)(=O)=O)cc21 [Example 3] :: 5.54
Cn1cc(-c2ccc(C(F)F)cc2)c2cc(F)c(C(=O)NS(C)(=O)=O)cc21 [Example 48] :: 7.04
CC(C)COc1ccc(-c2cn(C)c3cc(C(=O)NS(=O)(=O)C4CC4)c(F)cc23)cn1 [Example 45] :: 7.23
Cn1cc(-c2ccc(C(F)F)cc2)c2ccc(C(=O)NS(=O)(=O)C3CC3)cc21 [Example 31] :: 7.16
Cn1cc(-c2cnc(OCC3CC3)c(Cl)c2)c2ccc(C(=O)NS(=O)(=O)C3CC3)cc21 [Example 35] :: 7.07
CC(C)COc1ncc(-c2cn(CC(C)C)c3cc(C(=O)NS(=O)(=O)C4CC4)ccc23)cc1Cl [Example 28] :: 5.09

Now let's try a different one.
Challenge: Note down pIC50 recorded for Cn1cc(-c2ccc(OC(F)(F)F)cc2)c2ccc(C(=O)NS(C)(=O)=O)cc21 [Example 4]
Response given: 7.10
